Hey, just so you know, these numbers are from the RNAGym collection of RNA variant scans (doi:10.7554/elife.80360).

Record form. Attribute: self-cleavage. Fill in for each entry.
B1: HDV Ribozyme (parent)
chain: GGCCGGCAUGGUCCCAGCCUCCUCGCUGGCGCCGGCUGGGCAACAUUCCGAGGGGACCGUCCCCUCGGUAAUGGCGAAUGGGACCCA

- Variants of: B1
- PROTOCOL NOTES: self-cleavage, relative activity (ratio to wild type); higher = more cleavage; co-transcriptional
Numbers only.

Examples from the recorded data:
MUT	self-cleavage
C22U A83U	0.199
C84G C85G	0.26
C32U G81U	0.185
G17A A45U	0.696
C36U U60G	0.508
C3G C30U	0.156
U37G C86A	0.185
C21A G52C	0.125
G5A A70G	0.0504
A51C G52C	0.332

Please look at the items below and tell me self-cleavage for each one, in order.
1. U69A G80U
2. C7G A77C
3. C41A A45G

Result:
[0.141, 0.0692, 0.942]

Please look at the items below and tell me self-cleavage for each one, in order.
1. C24G A51U
2. A8U C49U

Result:
0.237
0.739

Please look at the items below and tell me self-cleavage for each one, in order.
1. U37G A78C
2. U65A A83C
3. G28A C85A
4. G10C C66G
5. A51U A83U
6. A16C G38U

Result:
1. 0.196
2. 0.504
3. 0.0369
4. 0.646
5. 0.712
6. 0.287
